Form field: MIC (one value per entry).
System: Mycolicibacterium smegmatis
Assay method text: Antimycobacterial activity against Mycobacterium smegmatis (SANK 75075)
Format: functional

Look over these answered cases.
Chemical structure | Measurement
CCCCCCCCCCCCCCNC(=O)C1=C[C@H](O)[C@H](O)[C@@H](O[C@@H](C(N)=O)[C@H]2O[C@@H](n3ccc(=O)[nH]c3=O)[C@H](O)[C@@H]2OC)O1 | > 50 µg/mL
CO[C@H]1[C@@H](O)[C@H](n2ccc(=O)[nH]c2=O)O[C@@H]1[C@@H](O[C@H]1OC(C(=O)NCC(c2ccccc2)c2ccccc2)=C[C@H](O)[C@@H]1O)C(N)=O | > 100 µg/mL
CO[C@H]1[C@@H](O)[C@H](n2ccc(=O)[nH]c2=O)O[C@@H]1[C@@H](O[C@H]1OC(C(=O)N(C)c2ccccc2)=C[C@H](O)[C@@H]1O)C(N)=O | > 100 µg/mL
CO[C@H]1[C@@H](O)[C@H](n2ccc(=O)[nH]c2=O)O[C@@H]1[C@@H](O[C@H]1OC(C(=O)NCCCCO)=C[C@H](O)[C@@H]1O)C(N)=O | > 100 µg/mL

Q: Please report the recorded MIC for CO[C@H]1[C@@H](O)[C@H](n2ccc(=O)[nH]c2=O)O[C@@H]1[C@@H](O[C@H]1OC(C(=O)N2CCCC2)=C[C@H](O)[C@@H]1O)C(N)=O .
Ans: > 100 µg/mL

# credit: ChEMBL document CHEMBL1136174
